system: HEK293; test: inhibitors of LMP1-driven NF-kB reporter, dose response, cell-based, HEK293, luciferase, cherry-pick (AID 588343); assay type: functional; conditions: Homo sapiens
The source made the active and inactive calls.
experimental.readout: AC50

Oc1c(N=NC(S)=Nc2ccccc2F)c2ccccc2n1Cc1ccccc1 = 3.07 µM (active)
O=C(/C=C/c1ccco1)Oc1cc(Br)cc(/C=N/NC(=O)c2ccccc2O)c1 = 5.21 µM (active)
CCCCC/N=C\c1c(C)nn(-c2nc3ccccc3s2)c1O = 3.89 µM (active)

Here's the next entry for you.
Exercise: Consider the compound Cc1sc2ncnc(N3CCC(C(=O)Nc4ccccc4C(C)(C)C)CC3)c2c1C and give its measured AC50.
Solution: 16.8 µM (active)

###

target: Heat shock factor protein 1 (Mus musculus, UniProt P38532); assay: HSF1 potentiators in luciferase reporter cells, confirmation, cell-based, NIH3T3, luminescence, dose retest (AID 435004); assay type: functional;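 further: stress induced by proteasome inhibitor MG132 added 30 min after compound; luciferase reporter driven by HSF1 response element in NIH3T3 cells; actives raise luminescence as potentiators of the MG132 stress response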
Sequence (P38532 whole entry): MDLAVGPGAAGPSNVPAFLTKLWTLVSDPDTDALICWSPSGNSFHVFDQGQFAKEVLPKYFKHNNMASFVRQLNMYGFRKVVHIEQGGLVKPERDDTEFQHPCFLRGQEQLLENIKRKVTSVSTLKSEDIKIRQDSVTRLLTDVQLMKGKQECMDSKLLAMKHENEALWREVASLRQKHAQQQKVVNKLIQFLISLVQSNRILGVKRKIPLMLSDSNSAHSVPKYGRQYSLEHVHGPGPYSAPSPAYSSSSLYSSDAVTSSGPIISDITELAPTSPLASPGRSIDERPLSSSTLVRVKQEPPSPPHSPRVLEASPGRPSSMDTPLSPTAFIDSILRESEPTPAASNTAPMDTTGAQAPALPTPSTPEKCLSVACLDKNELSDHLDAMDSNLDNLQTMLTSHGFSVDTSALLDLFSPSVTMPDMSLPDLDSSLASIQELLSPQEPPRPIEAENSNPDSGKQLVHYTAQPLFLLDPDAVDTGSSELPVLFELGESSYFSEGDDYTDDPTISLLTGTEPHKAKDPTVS
Active and inactive are the calls of the source.
Entries annotated with measured EC50

Worked cases, EC50 given:
Cc1nc2scc(-c3ccc(Cl)cc3)c2c(=O)n1N = > 260 µM (inactive)
O=C1NC(=S)S/C1=C/c1ccc(OC(=O)c2ccco2)cc1 = > 260 µM (inactive)

Exercise: Recorded EC50 of OCC1(Cc2cccc(C(F)(F)F)c2)CCN(Cc2cc3ccccc3o2)CC1 , please.
Solution: > 260 µM (inactive)

Exercise: Dear colleague, I am looking for the recorded EC50 of the following compound: CC(C)N(Cc1nc(-c2ccc(Cl)cc2)no1)C(=O)CN(C)S(=O)(=O)c1ccc(Cl)cc1
Solution: > 260 µM (inactive)

Exercise: Bench note: what EC50 did O=c1[nH]c2ccccc2n1CCC1CCCCC1 show?
Solution: > 260 µM (inactive)

Exercise: Data request, read-out EC50, for O=C(Nc1cccc(Cl)c1)Nc1csc([N+](=O)[O-])c1
Solution: 31.6 µM (active)

###

target: Glyceraldehyde-3-phosphate dehydrogenase (Homo sapiens)
Sequence (P04406 whole entry): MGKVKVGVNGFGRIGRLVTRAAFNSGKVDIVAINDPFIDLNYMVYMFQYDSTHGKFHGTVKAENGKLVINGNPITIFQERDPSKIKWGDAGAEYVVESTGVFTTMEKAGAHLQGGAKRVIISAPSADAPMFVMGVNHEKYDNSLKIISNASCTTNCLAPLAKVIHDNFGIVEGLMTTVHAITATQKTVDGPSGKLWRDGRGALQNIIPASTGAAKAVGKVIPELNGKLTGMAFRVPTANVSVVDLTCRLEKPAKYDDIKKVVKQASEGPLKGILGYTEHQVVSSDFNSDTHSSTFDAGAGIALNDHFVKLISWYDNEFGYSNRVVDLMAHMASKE
The source made the active and inactive calls.
experimental.readout: IC50

O=C1CC(=O)N(Cc2ccco2)C(=O)N1 = > 100 µM (not active)
O=C(O)C1Nc2c(O)cccc2C2C=CCC12 (stereo not drawn) = 47.7 µM (active)
O=S(=O)(Nc1cccnc1)c1ccc(Br)cc1OC(F)(F)F = > 100 µM (not active)
CCOc1cc(C)c(C)cc1S(=O)(=O)Nc1cccnc1 = > 100 µM (not active)

Exercise: # lookup: IC50 of CC1CCN(Cc2ccc(NC(=O)C3CCN(c4nnc(-n5cccc5)s4)CC3)cc2)CC1
Solution: > 100 µM (not active)

Exercise: Which IC50 value belongs to COc1cccc(N2CCN(C3=C(Cl)C(=O)N(c4ccc(C)cc4)C3=O)CC2)c1 ?
Solution: > 50 µM (inconclusive)

Exercise: Which IC50 value is on record for O=C1C2CCCCC2C(=O)N1c1nccs1 (stereo not drawn) ?
Solution: > 10 µM (inconclusive)

Exercise: Entry Cc1cc(NC(=O)Cc2cccs2)no1 has what IC50?
Solution: 92.2 µM (active)

###

The following compounds are listed with their measured EC50 values.
target: Luciferin 4-monooxygenase (Photinus pyralis, UniProt P08659); experiment: firefly luciferase enzyme inhibitors, dose response, biochemical, luminescence (AID 1891)
Sequence (P08659 whole entry): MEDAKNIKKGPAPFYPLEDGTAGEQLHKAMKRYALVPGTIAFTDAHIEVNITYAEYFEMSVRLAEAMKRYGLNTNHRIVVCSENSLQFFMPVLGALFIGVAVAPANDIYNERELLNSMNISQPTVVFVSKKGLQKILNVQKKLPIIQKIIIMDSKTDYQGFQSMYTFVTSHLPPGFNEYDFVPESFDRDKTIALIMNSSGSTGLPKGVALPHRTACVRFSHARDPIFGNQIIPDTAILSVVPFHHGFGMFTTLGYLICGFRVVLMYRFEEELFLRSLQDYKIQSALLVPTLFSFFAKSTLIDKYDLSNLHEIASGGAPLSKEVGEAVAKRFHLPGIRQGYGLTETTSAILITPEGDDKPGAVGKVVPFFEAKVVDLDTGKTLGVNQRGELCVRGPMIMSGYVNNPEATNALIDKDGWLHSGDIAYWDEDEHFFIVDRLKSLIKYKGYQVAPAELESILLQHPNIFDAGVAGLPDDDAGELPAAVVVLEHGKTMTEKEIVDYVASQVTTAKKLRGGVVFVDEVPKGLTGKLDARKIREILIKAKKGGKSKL
Active and inactive are the calls of the source.

Field: example entries. Status: answers known.
O=C(c1ccc(S(=O)(=O)Nc2ccccc2)cc1)N1CCCCCCC1 = > 112 µM (not active)
O=C(COC(=O)c1n[nH]c2ccccc12)Nc1cccc(S(=O)(=O)N2CCOCC2)c1 = > 112 µM (not active)
Cc1ccc(-c2nc(-c3ccccn3)no2)cc1 = 0.593 µM (active)
NC(=O)CSc1cn(Cc2cccc(F)c2)c2ccccc12 = > 112 µM (not active)
Cc1ccc(-n2c(C)cc(/C=c3/sc4nc5ccccc5n4c3=O)c2C)cc1 = > 112 µM (not active)

Exercise: Item O=Nc1c2cc(-c3ccccc3)n[nH]c-2c2ccccc12 has what recorded EC50?
Solution: 0.222 µM (active)

Exercise: Endpoint output: EC50 of C/C(=N/OC(=O)c1ccc(C)cc1)c1cccs1 . Value?
Solution: 1.22 µM (active)
